Target: T1, r murine EphA7 (mouse, UniProt Q61772)
T1 construct: recombinant Fc fusion (R&D Systems); also called rmuEphA7-Fc; mEphA7
T1 sequence (receptor-Fc fusion, looked up): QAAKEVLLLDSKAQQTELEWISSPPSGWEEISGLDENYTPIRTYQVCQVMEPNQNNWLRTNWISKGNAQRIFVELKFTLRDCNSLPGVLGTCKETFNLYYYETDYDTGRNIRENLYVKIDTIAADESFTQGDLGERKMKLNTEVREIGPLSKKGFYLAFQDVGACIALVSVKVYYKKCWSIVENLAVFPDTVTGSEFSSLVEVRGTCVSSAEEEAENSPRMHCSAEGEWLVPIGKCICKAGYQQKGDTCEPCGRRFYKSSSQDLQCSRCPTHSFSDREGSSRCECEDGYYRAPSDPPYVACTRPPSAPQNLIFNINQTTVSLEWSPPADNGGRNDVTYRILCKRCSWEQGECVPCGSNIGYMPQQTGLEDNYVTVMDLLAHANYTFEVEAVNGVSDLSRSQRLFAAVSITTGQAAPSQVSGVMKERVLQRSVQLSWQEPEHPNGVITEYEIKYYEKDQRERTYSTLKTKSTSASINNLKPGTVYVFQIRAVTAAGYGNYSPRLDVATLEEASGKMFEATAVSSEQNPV
Assay: activity ELISA, Fab on coated antigen

# binder, binding result
data = [
    ("1G11 Fab (affinity optimized combinatorial variant of Fab20) (Fab, V domains shown) VH: QVQLLQSGAEVKKPGASVKVPCKASGYTFTSRAMSWVRQAPGQGLEWMGWINTNTGNPTYAQGFTGRFVFSLDTSVSTAYLQISSLKAEDTAVYYCARVRFTVYGDGMDVWGQGTLVTVSS VL: EIVLTQSPATLSVSPGERATLSCRASQSVSSNLPWYQQKPGQAPRLLIYGASTRPTGIPDRFSASGSGTDFTLTISRVEPEDFAVYYCQQYGPSWTFGQGTKVEIK", "binds"),
    ("1A4 Fab (affinity optimized combinatorial variant of Fab20) (Fab, V domains shown) VH: QVQLLQSGAEVKKPGASVKVPCKASGYTFTSRAMSWVRQAPGQGLEWMGWINTNTGNPTYAQGSTGRFVFSLDTSVSTAYLQISSLKAEDTAVYYCARVRFTVYGDGMDVWGQGTLVTVSS VL: EIVLTQSPATLSVSPGERATLSCRASQSVSSNPAWYQQKPGQAPRLLIYGASTRATGIPDRFSASGSGTDFTLTISRVEPEDFAVYYCQQYGPSWTFGQGTKVEIK", "binds"),
    ("3A12 Fab (affinity optimized combinatorial variant of Fab20) (Fab, V domains shown) VH: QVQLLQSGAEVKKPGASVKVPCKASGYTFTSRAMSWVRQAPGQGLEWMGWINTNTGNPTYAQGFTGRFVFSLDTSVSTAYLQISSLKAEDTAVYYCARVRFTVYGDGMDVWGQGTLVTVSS VL: EIVLTQSPATLSVSPGERATLSCRASQSVSSNLAWYQQKPGQAPRLLIYGASTWATGIPDRFSASGSGTDFTLTISRVEPEDFAVYYCQQYGPSWTFGQGTKVEIK", "binds"),
]
